- assay.protocol: Total plasma clearance in mouse at 1.75 mg/kg, iv
- Format: ADME, organism-based
readout: clearance (mL/min/kg)
Record the value in mL/min/kg, omitting the unit from your answer.

Name the recorded clearance for Cc1nnn(C)c1-c1cnc2c3ccc(C(C)(C)O)cc3n([C@H](c3ccccc3)C3CCOCC3)c2c1 [EZOBRESIB] .
12

----------
- assay.protocol: AUC in human LG0787F cells xenografted in NSG mouse at 1 mg/kg/day, po bid
- Format: ADME, organism-based
- Design: dose 1 mg/kg/day, route po
- experimental.conditions: in vivo
readout: AUC (µM·h)
Record the value in µM·h, omitting the unit from your answer.

Name the recorded AUC for Cc1nnn(C)c1-c1cnc2c3ccc(C(C)(C)O)cc3n([C@H](c3ccccc3)C3CCOCC3)c2c1 .
0.47

----------
- assay.protocol: Permeability coefficient across apical to basolateral side in human Caco-2 cells
- Assay type: ADME, cell-based
- experimental.conditions: read-out: permeability
readout: Papp A→B

Name the recorded Papp A→B for Cc1noc(C)c1-c1cc(C(N)=O)c2c3ccc(C(C)(C)O)cc3n([C@H](c3ccccc3)C3CCOCC3)c2c1 .
3.4 ×10⁻⁶ cm/s

Similarly, Cc1nnn(C)c1-c1cnc2c3ccc(C(C)(C)O)cc3n([C@H](c3ccccc3)C3CCOCC3)c2c1 ?
13.3 ×10⁻⁶ cm/s

Similarly, Cc1noc(C)c1-c1cc(C(N)=O)c2c3ccc(C(C)(C)O)cc3n(Cc3ccccc3)c2c1 ?
7.6 ×10⁻⁶ cm/s

Similarly, Cc1noc(C)c1-c1cnc2c3ccc(C(C)(C)O)cc3n([C@H](c3ccccc3)C3CCOCC3)c2c1 ?
26.3 ×10⁻⁶ cm/s

----------
- assay.protocol: Cmax in human LG0787F cells xenografted in NSG mouse at 1 mg/kg/day, po qd
- Type: ADME, organism-based
- Set-up: dose 1 mg/kg/day, route po
- experimental.conditions: in vivo
readout: Cmax (nM)
Record the value in nM, omitting the unit from your answer.

Name the recorded Cmax for Cc1nnn(C)c1-c1cnc2c3ccc(C(C)(C)O)cc3n([C@H](c3ccccc3)C3CCOCC3)c2c1 [EZOBRESIB] .
150

----------
- assay.protocol: Total plasma clearance in rat at 1 mg/kg, iv
- Assay type: ADME, organism-based
readout: clearance (mL/min/kg)
Record the value in mL/min/kg, omitting the unit from your answer.

Name the recorded clearance for Cc1nnn(C)c1-c1cnc2c3ccc(C(C)(C)O)cc3n([C@H](c3ccccc3)C3CCOCC3)c2c1 .
41

----------
- assay.protocol: Volume of distribution at steady state in dog at 0.1 mg/kg, iv
- Format: ADME, organism-based, Canis lupus familiaris
- experimental.conditions: in vivo, read-out: Vdss
readout: Vd (L/kg)
Record the value in L/kg, omitting the unit from your answer.

Name the recorded Vd for Cc1nnn(C)c1-c1cnc2c3ccc(C(C)(C)O)cc3n([C@H](c3ccccc3)C3CCOCC3)c2c1 .
5.3

----------
- assay.protocol: Anticancer activity against human HCC33 cells
- Assay type: functional, cell-based
readout: IC50 (nM)
Record the value in nM, omitting the unit from your answer.

Name the recorded IC50 for Cc1nnn(C)c1-c1cnc2c3ccc(C(C)(C)O)cc3n([C@H](c3ccccc3)C3CCOCC3)c2c1 .
0.23

----------
- assay.protocol: Permeability coefficient of the compound by PAMPA
- Type: ADME
- experimental.conditions: read-out: permeability
readout: Papp (×10⁻⁶ cm/s)
Record the value in ×10⁻⁶ cm/s, omitting the unit from your answer.

Name the recorded Papp for Cc1noc(C)c1-c1cnc2c3ccc(C(C)(C)O)cc3n([C@H](c3ccccc3)C3CCOCC3)c2c1 .
98.4

Similarly, Cc1nnn(C)c1-c1cnc2c3ccc(C(C)(C)O)cc3n([C@H](c3ccccc3)C3CCOCC3)c2c1 ?
66.1

Similarly, Cc1noc(C)c1-c1cc(C(N)=O)c2c3ccc(C(C)(C)O)cc3n([C@H](c3ccc(F)cc3)C3CCOCC3)c2c1 ?
70.2

Similarly, Cc1noc(C)c1-c1cc(C(N)=O)c2c3ccc(C(C)(C)O)cc3n(CC3CCOCC3)c2c1 ?
40.2

Similarly, Cc1noc(C)c1-c1cc(C(N)=O)c2c3ccc(C(C)(C)O)cc3n([C@@H](c3ccccc3)C3CCOCC3)c2c1 ?
58.4

Similarly, Cc1noc(C)c1-c1cc(C(N)=O)c2c3ccc(C(C)(C)O)cc3n(C(c3ccccc3)c3ccccc3)c2c1 ?
68.2

Similarly, Cc1noc(C)c1-c1cc(C(N)=O)c2c3cc(C(C)(C)O)ccc3n(Cc3ccccc3)c2c1 ?
74.9

Similarly, Cc1noc(C)c1-c1cc(C(N)=O)c2c3ccc(C(C)(C)O)cc3n([C@H](c3ccccc3)C3CCOCC3)c2c1 ?
67.1

Similarly, Cc1noc(C)c1-c1cc(C(N)=O)c2c3ccc(C(C)(C)O)cc3n(Cc3ccccc3)c2c1 ?
84.9

Similarly, Cc1noc(C)c1-c1cc(C(N)=O)c2c3cc(C(=O)N4C[C@@H](C)O[C@@H](C)C4)ccc3n(Cc3ccccc3)c2c1 ?
80.9

----------
- Tested on: NCI-H1623
- assay.protocol: Anticancer activity against human NCI-H1623 cells
- Format: functional, cell-based
readout: IC50

Name the recorded IC50 for Cc1nnn(C)c1-c1cnc2c3ccc(C(C)(C)O)cc3n([C@H](c3ccccc3)C3CCOCC3)c2c1 .
> 500 nM

----------
- assay.protocol: Volume of distribution at steady state in monkey at 0.1 mg/kg, iv
- Assay type: ADME, organism-based, Macaca mulatta
- experimental.conditions: rhesus monkey, in vivo, read-out: Vdss
readout: Vd
// return the numeric value with its unit appended

Name the recorded Vd for Cc1nnn(C)c1-c1cnc2c3ccc(C(C)(C)O)cc3n([C@H](c3ccccc3)C3CCOCC3)c2c1 .
4.2 L/kg

----------
- assay.target: Cytochrome P450 2C19 (Homo sapiens)
- Sequence (P33261 whole entry): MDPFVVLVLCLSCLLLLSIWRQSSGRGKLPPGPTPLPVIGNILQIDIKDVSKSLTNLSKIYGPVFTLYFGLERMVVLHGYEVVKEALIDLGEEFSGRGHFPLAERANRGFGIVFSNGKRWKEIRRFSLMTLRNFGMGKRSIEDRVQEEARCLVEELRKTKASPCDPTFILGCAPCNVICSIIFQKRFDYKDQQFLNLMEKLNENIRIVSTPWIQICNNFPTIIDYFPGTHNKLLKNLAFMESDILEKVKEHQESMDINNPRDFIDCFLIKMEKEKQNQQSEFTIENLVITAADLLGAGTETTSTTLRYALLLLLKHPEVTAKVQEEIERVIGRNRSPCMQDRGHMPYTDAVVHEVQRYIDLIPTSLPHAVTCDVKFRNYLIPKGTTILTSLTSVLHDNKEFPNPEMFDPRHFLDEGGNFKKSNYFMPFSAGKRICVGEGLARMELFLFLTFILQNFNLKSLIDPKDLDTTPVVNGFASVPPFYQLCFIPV
- assay.protocol: Inhibition of CYP2C19 (unknown origin)
- Assay type: ADME
readout: pIC50
For clarity, pIC50 is expressed as the negative log10 of concentration in mol/L.

Name the recorded pIC50 for Cc1noc(C)c1-c1cnc2c3ccc(C(C)(C)O)cc3n([C@H](c3ccccc3)C3CCOCC3)c2c1 .
5.82

----------
- assay.target: Cytochrome P450 1A2 (Homo sapiens, UniProt P05177)
- Sequence (P05177 whole entry): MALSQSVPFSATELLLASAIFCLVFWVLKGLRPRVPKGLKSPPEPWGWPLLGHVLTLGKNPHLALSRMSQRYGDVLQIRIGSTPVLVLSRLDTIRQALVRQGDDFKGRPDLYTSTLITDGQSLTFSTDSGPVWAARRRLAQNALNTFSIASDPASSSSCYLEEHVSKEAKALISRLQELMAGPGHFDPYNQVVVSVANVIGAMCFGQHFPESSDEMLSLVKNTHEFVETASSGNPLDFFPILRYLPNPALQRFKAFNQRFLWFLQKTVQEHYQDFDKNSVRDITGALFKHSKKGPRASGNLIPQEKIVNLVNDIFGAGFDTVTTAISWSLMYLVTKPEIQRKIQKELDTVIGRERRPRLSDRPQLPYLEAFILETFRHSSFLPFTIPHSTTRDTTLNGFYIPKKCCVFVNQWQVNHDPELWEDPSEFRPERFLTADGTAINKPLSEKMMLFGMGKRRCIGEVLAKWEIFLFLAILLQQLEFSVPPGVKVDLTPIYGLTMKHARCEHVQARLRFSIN
readout: IC50

GET /values?readout=IC50&system=Cytochrome P450 1A2 (Homo sapiens, UniProt P05177)&item= Cc1nnn(C)c1-c1cnc2c3ccc(C(C)(C)O)cc3n([C@H](c3ccccc3)C3CCOCC3)c2c1 [EZOBRESIB]
> 20 µM

----------
- assay.protocol: Elimination half life in dog at 0.1 mg/kg, iv
- Type: ADME, organism-based, Canis lupus familiaris
- experimental.conditions: in vivo, read-out: beta t1/2 (converted)
readout: half-life (h)
Record the value in h, omitting the unit from your answer.

Name the recorded half-life for Cc1nnn(C)c1-c1cnc2c3ccc(C(C)(C)O)cc3n([C@H](c3ccccc3)C3CCOCC3)c2c1 .
5.6

----------
- assay.protocol: Oral bioavailability in monkey at 5 mg/kg
- Assay type: ADME, organism-based, Macaca mulatta
- experimental.conditions: rhesus monkey, in vivo
readout: bioavailability
// return the numeric value with its unit appended

Name the recorded bioavailability for Cc1nnn(C)c1-c1cnc2c3ccc(C(C)(C)O)cc3n([C@H](c3ccccc3)C3CCOCC3)c2c1 .
16%

----------
- assay.protocol: Total plasma clearance in monkey at 0.1 mg/kg, iv
- Type: ADME, organism-based, Macaca mulatta
- experimental.conditions: rhesus monkey
readout: clearance (mL/min/kg)
Record the value in mL/min/kg, omitting the unit from your answer.

Name the recorded clearance for Cc1nnn(C)c1-c1cnc2c3ccc(C(C)(C)O)cc3n([C@H](c3ccccc3)C3CCOCC3)c2c1 [EZOBRESIB] .
32

----------
- assay.protocol: Metabolic stability in mouse liver microsomes assessed as parent compound remaining at 0.5 uM after 10 mins
- Format: ADME, Microsome
- experimental.conditions: read-out: Stability
readout: remaining at 10 min, 0.5 µM (%)
Record the value in %, omitting the unit from your answer.

Name the recorded remaining at 10 min, 0.5 µM for Cc1noc(C)c1-c1cc(C(N)=O)c2c3ccc(C(C)(C)O)cc3n([C@@H](c3ccccc3)C3CCOCC3)c2c1 .
0

Similarly, Cc1noc(C)c1-c1cc(C(N)=O)c2c3ccc(C(C)(C)O)cc3n([C@H](c3ccc(F)cc3)C3CCOCC3)c2c1 ?
33

Similarly, Cc1noc(C)c1-c1cnc2c3ccc(C(C)(C)O)cc3n([C@H](c3ccccc3)C3CCOCC3)c2c1 ?
42

Similarly, Cc1noc(C)c1-c1cc(C(N)=O)c2c3ccc(C(C)(C)O)cc3n(CC3CCOCC3)c2c1 ?
55

Similarly, Cc1noc(C)c1-c1cc(C(N)=O)c2c3ccc(C(C)(C)O)cc3n([C@H](c3ccccc3)C3CCOCC3)c2c1 ?
20

Similarly, Cc1noc(C)c1-c1cc(C(N)=O)c2c3cc(C(=O)N4C[C@@H](C)O[C@@H](C)C4)ccc3n(Cc3ccccc3)c2c1 ?
19

Similarly, Cc1nnn(C)c1-c1cnc2c3ccc(C(C)(C)O)cc3n([C@H](c3ccccc3)C3CCOCC3)c2c1 ?
66

Similarly, Cc1noc(C)c1-c1cc(C(N)=O)c2c3ccc(C(C)(C)O)cc3n(C(c3ccccc3)c3ccccc3)c2c1 ?
26

Similarly, Cc1noc(C)c1-c1cc(C(N)=O)c2c3ccc(C(C)(C)O)cc3n(Cc3ccccc3)c2c1 ?
62

// provenance: ChEMBL document CHEMBL5053512
